Numbers sourced from patent US8178506B2.

Tested on: BJ, B16-F10, T47D, T47Dp53 and HeLa cells
METHOD_DESCRIPTION: Cell cycle assay (propidium iodide flow cytometry), cell line panel
Type: cell-based
EXPERIMENTAL_CONTEXT: 150 nM oligomeric compound, 4.5 μg/ml LIPOFECTIN, after 72 hours, propidium iodide flow cytometry
In the oligonucleotide strings, read from the 5' end, every base follows the letter of its sugar. An asterisk marks phosphorothioate; unmarked linkages are phosphodiester. Other units and linkages are bracketed, terminal groups are in braces. A string of capitals states the bases alone. e = 2'-O-(2-methoxyethyl) (MOE); [5mC] = 5-methylcytosine; d = 2'-deoxy (DNA)
Under this convention, Yes denotes S (percentage of cells in phase of the cell cycle) strictly below 30% and No denotes S (percentage of cells in phase of the cell cycle) at or above 30%.

Solved cases (2 shown):
328342 (e[5mC]*eA*eA*eT*eT*dG*d[5mC]*dG*d[5mC]*dT*dA*d[5mC]*dA*dG*dA*eA*e[5mC]*eT*eG*eT) [compound 328342] : Yes
340348 (antisense CTACCTGCACGAACAGCACTTT; all 2'-MOE, all phosphorothioate, methylation of C not given here) [compound 340348] : No

Data request: Please check: S (percentage of cells in phase of the cell cycle) for 328388 (eT*e[5mC]*e[5mC]*e[5mC]*eA*dT*dA*dG*d[5mC]*dA*dG*dG*dG*d[5mC]*dA*eG*eA*eG*e[5mC]*e[5mC]; antisense) [compound 328388] , strictly under 30% or not?
Data returned: Yes

Data request: hey, is S (percentage of cells in phase of the cell cycle) for 327951 (antisense e[5mC]*eA*e[5mC]*eA*eA*eA*e[5mC]*e[5mC]*eA*eT*eT*eA*eT*eG*eT*eG*e[5mC]*eT*eG*e[5mC]*eT*eA) [compound 327951] lower than 30% or not?
Data returned: Yes

Data request: Please state whether S (percentage of cells in phase of the cell cycle) is below 30% for 327906 (antisense eT*e[5mC]*eA*eT*eA*eG*e[5mC]*e[5mC]*e[5mC]*eT*eG*eT*eA*e[5mC]*eA*eA*eT*eG*e[5mC]*eT*eG*e[5mC]*eT) [compound 327906]
Data returned: No

Data request: Please indicate whether the reported S (percentage of cells in phase of the cell cycle) of 328436 (antisense eG*eA*eA*eA*eA*dT*dT*dA*dT*dA*dT*dT*dG*dA*d[5mC]*eT*e[5mC]*eT*eG*eA) [compound 328436] is strictly below 30%.
Data returned: Yes

Data request: hey, is S (percentage of cells in phase of the cell cycle) for 328423 (antisense e[5mC]*e[5mC]*eA*e[5mC]*eA*dT*dA*dT*dA*d[5mC]*dA*dT*dA*dT*dA*eT*eA*e[5mC]*eG*e[5mC]) [compound 328423] lower than 30% or not?
Data returned: No

Data request: Consider the substance 327914 (antisense eG*e[5mC]*e[5mC]*e[5mC]*eT*eT*eT*eT*eA*eA*e[5mC]*eA*eT*eT*eG*e[5mC]*eA*e[5mC]*eT*eG) [compound 327914] . Is its S (percentage of cells in phase of the cell cycle) strictly less than 30%?
Data returned: Yes

Data request: Is the reported S (percentage of cells in phase of the cell cycle) for 327878 (antisense e[5mC]*eT*eA*eG*eT*eG*eG*eT*e[5mC]*e[5mC]*eT*eA*eA*eA*e[5mC]*eA*eT*eT*eT*e[5mC]*eA*e[5mC]) [compound 327878] strictly below 30%?
Data returned: No

Data request: Does this substance meet the criterion S (percentage of cells in phase of the cell cycle) < 30%? 327933 (antisense eA*eA*eG*eG*eG*eA*eT*eT*e[5mC]*e[5mC]*eT*eG*eG*eG*eA*eA*eA*eA*e[5mC]*eT*eG*eG*eA*e[5mC]) [compound 327933]
Data returned: No

---

Test system: HSL
METHOD_DESCRIPTION: HSL mRNA expression in adipocytes (real-time PCR)
Format: cell-based, human
EXPERIMENTAL_CONTEXT: differentiating adipocytes transfected with oligomeric compound
In the oligonucleotide strings, read from the 5' end, every base follows the letter of its sugar. An asterisk marks phosphorothioate; unmarked linkages are phosphodiester. Other units and linkages are bracketed, terminal groups are in braces. A string of capitals states the bases alone. e = 2'-O-(2-methoxyethyl) (MOE); [5mC] = 5-methylcytosine; d = 2'-deoxy (DNA)
Provide the reported HSL mRNA of each item.

Here are 2 substances together with their reported answers.
327904 (antisense eA*e[5mC]*eT*e[5mC]*eA*e[5mC]*e[5mC]*eG*eA*e[5mC]*eA*eG*e[5mC]*eG*eT*eT*eG*eA*eA*eT*eG*eT*eT) [compound 327904] : 42 percentage of untreated control (UTC)
NNNNNNNNNNNNNNNNNNNN [ISIS 29848, reference compound] : 84 percentage of untreated control (UTC)

Field: next substance
Data request: Consider the substance shown here: 328434 (antisense e[5mC]*eG*e[5mC]*eA*eT*d[5mC]*dT*dT*dG*dA*d[5mC]*dT*dG*dT*dA*eG*e[5mC]*eA*eT*eG) [compound 328434] What is its recorded HSL mRNA?
Data returned: 96 percentage of untreated control (UTC)

---

Tested on: HSL
METHOD_DESCRIPTION: HSL mRNA expression in adipocytes (real-time PCR)
Type: cell-based, human
EXPERIMENTAL_CONTEXT: adipocytes, 250 nM oligomeric compound, day nine post-transfection, relative to control (1.0); Table 16
In the oligonucleotide strings, read from the 5' end, every base follows the letter of its sugar. An asterisk marks phosphorothioate; unmarked linkages are phosphodiester. Other units and linkages are bracketed, terminal groups are in braces. A string of capitals states the bases alone. e = 2'-O-(2-methoxyethyl) (MOE); [5mC] = 5-methylcytosine
Give measured HSL (mRNA expression) for each item. Keep answers brief.
One number for each entry.

327905 (antisense e[5mC]*eA*eG*eA*e[5mC]*eT*e[5mC]*e[5mC]*eG*eG*eT*eG*eG*eA*eA*eT*eG*eA*eA*eG*eG*eA) [compound 327905] : 0.69

Provide reported HSL (mRNA expression) for each item, in the same order as listed.
1. 327922 (antisense eT*e[5mC]*eA*eG*eT*eT*eT*eT*eG*e[5mC]*eA*eT*eG*eG*eA*eT*eT*eT*eG*e[5mC]*eA*e[5mC]*eA) [compound 327922]
2. 327889 (antisense eG*eT*eG*eG*eT*eA*eA*eT*e[5mC]*e[5mC]*e[5mC]*eT*eG*eG*e[5mC]*eA*eA*eT*eG*eT*eG*eA*eT) [compound 327889]

Data returned:
[0.72, 0.54]

Hi, could you look up HSL (mRNA expression) for each item in my list?
1. 327926 (antisense eA*e[5mC]*eT*eA*eT*eG*e[5mC]*eA*eA*e[5mC]*e[5mC]*eT*eA*e[5mC]*eT*eA*e[5mC]*e[5mC]*eT*e[5mC]*eT) [compound 327926]
2. 327919 (antisense eG*eA*eA*eA*e[5mC]*e[5mC]*e[5mC]*eA*eG*e[5mC]*eA*eG*eA*e[5mC]*eA*eA*eT*eG*eT*eA*eG*e[5mC]*eT) [compound 327919]

Data returned:
0.82
0.37

---

Give measured HSL (mRNA expression) for each item. Keep answers brief.
Tested on: HSL
METHOD_DESCRIPTION: HSL mRNA expression in adipocytes (real-time PCR)
Type: cell-based, human
EXPERIMENTAL_CONTEXT: adipocytes, 250 nM oligomeric compound, day nine post-transfection, relative to control (1.0); Table 15
In the oligonucleotide strings, read from the 5' end, every base follows the letter of its sugar. An asterisk marks phosphorothioate; unmarked linkages are phosphodiester. Other units and linkages are bracketed, terminal groups are in braces. A string of capitals states the bases alone. e = 2'-O-(2-methoxyethyl) (MOE); [5mC] = 5-methylcytosine

The following substances have reported results that may help.
327919 (antisense eG*eA*eA*eA*e[5mC]*e[5mC]*e[5mC]*eA*eG*e[5mC]*eA*eG*eA*e[5mC]*eA*eA*eT*eG*eT*eA*eG*e[5mC]*eT) [compound 327919] : 0.57
327922 (antisense eT*e[5mC]*eA*eG*eT*eT*eT*eT*eG*e[5mC]*eA*eT*eG*eG*eA*eT*eT*eT*eG*e[5mC]*eA*e[5mC]*eA) [compound 327922] : 0.95
327888 (antisense eA*eA*eT*eG*e[5mC]*e[5mC]*e[5mC]*e[5mC]*eT*eA*eA*eA*eA*eA*eT*e[5mC]*e[5mC]*eT*eT*eA*eT) [compound 327888] : 1.38
327880 (antisense eA*e[5mC]*eA*eA*eA*eT*eT*e[5mC]*eG*eG*eT*eT*e[5mC]*eT*eA*e[5mC]*eA*eG*eG*eG*eT*eA) [compound 327880] : 0.80
327913 (antisense eA*eA*e[5mC]*e[5mC]*eG*eA*eT*eT*eT*e[5mC]*eA*eA*eA*eT*eG*eG*eT*eG*e[5mC]*eT*eA*eG) [compound 327913] : 0.92

Respectfully, I request HSL (mRNA expression) for each entry included below.
1. 327941 (antisense eA*eA*e[5mC]*e[5mC]*e[5mC]*eA*e[5mC]*e[5mC]*eG*eA*e[5mC]*eA*eG*e[5mC]*eA*eA*eT*eG*eA*eA*eT*eG*eT*eT) [compound 327941]
2. 327876 (antisense eA*eA*e[5mC]*eA*e[5mC]*eT*eG*eA*eT*eT*eT*e[5mC]*eA*eA*eA*eT*eG*eG*eT*eG*e[5mC]*eT*eA) [compound 327876]

Data returned:
1: 1.73; 2: 0.47
